# key: entry, value: cell viability (log2)
- Test system: A673/TR/shEF
- experiment.description: cell viability (LOESS-normalised, relative to median of negative controls) (log2 ratio); higher = more viable cells (less compound effect), active = hit call of the paper (over 3 MAD below the median)
- details: 0.25 µM; library screen: screen2; EWS-FLI1 expression: high (no doxycycline); treatment time: 72 h
In all, about 3,200 compounds went through this assay and about 300 (9.4%) showed activity. What follows is part of a selection rich in actives, with near analogues and random picks from the rest.
Note: the reply should be a number with no unit written.

>  <molecule>
CN(C)c1cc2c(Nc3ccc4c(cnn4Cc4ccccc4)c3)ncnc2cn1

>  <parameter.measured>
cell viability (log2)

>  <numeric.value>
0.124

$$$$
>  <molecule>
COc1cc2ncnc(Nc3ccc(O)cc3)c2cc1OC

>  <parameter.measured>
cell viability (log2)

>  <numeric.value>
0.241

$$$$
>  <molecule>
Cc1ccccc1N1CCN(S(=O)(=O)C[C@]23CCC(CC2NC(=O)[C@@H](N)CCS(C)(=O)=O)C3(C)C)CC1 (stereo not given in full)

>  <parameter.measured>
cell viability (log2)

>  <numeric.value>
0.163

$$$$
>  <molecule>
CCCN(CCC)C(=O)C(CCC(=O)O)NC(=O)c1ccccc1 (stereo not given)

>  <parameter.measured>
cell viability (log2)

>  <numeric.value>
0.129

$$$$
>  <molecule>
Cc1ccc2c(c1)C(N1CCN(C)CC1)=Nc1cccnc1N2

>  <parameter.measured>
cell viability (log2)

>  <numeric.value>
0.144

$$$$

Requested field: cell viability (log2). Item: CCCCCCCCCCCCCCCCCC(=O)NCC(COP(=O)([O-])OCC[N+](C)(C)C)OC (stereo not given)
0.255

Moving on to the next molecule: NCCCCNS(=O)(=O)c1cccc2c(Cl)cccc12
-0.151

Cool, now COc1ccccc1N1CCN(CCCCNS(=O)(=O)c2cccc3c(N(C)C)cccc23)CC1
0.171

One more molecule: CC12CCC(=O)C=C1CCC1C2C(O)CC2(C)C1CCC2(O)C(=O)COC(=O)CCC(=O)O (stereo not given)
0.252

Also, COc1cc2ncnc(Nc3cccc(Cl)c3)c2cc1OC please.
0.134

* * *

- Tested on: A673/TR/shEF
- experiment.description: cell viability (LOESS-normalised, relative to median of negative controls) (log2 ratio); higher = more viable cells (less compound effect), active = hit call of the paper (over 3 MAD below the median)
- details: 8.3 µM; library screen: screen3; EWS-FLI1 expression: high (no doxycycline); treatment time: 72 h
Screen size: about 3,200 compounds; about 300 (9.4%) showed activity. The sample as a whole holds a higher share of actives than the screen did.
Your reply should match one of these outcome classes. active, inactive

>  <compound>
Cc1nc(N)sc1-c1ccnc(Nc2ccc(N3CCOCC3)cc2)n1

>  <class.name>
active

$$$$

Field: outcome | Entry: COc1ccc2nc([S@@+]([O-])Cc3ncc(C)c(OC)c3C)[nH]c2c1
inactive

And what about the compound CCCCCCOC(=O)/N=C(/N)c1ccc(NCc2nc3cc(C(=O)N(CCC(=O)OCC)c4ccccn4)ccc3n2C)cc1 ?
inactive

Same question, Cn1c(CNc2ccc(C(=N)N)cc2)nc2cc(C(=O)N(CCC(=O)O)c3ccccn3)ccc21 this time
inactive

Try the compound CC(C)(C)C(=O)OCOP(=O)(COCCn1cnc2c(N)ncnc21)OCOC(=O)C(C)(C)C
active

Now this one: S=c1nc[nH]c2nc[nH]c12
inactive

// query: COc1ccc2nc([S+]([O-])Cc3ncc(C)c(OC)c3C)[nH]c2c1 (stereo not drawn)
inactive

Record: Nc1nc(=S)c2[nH]cnc2[nH]1
active
